Entries and their Test result(number of subject) (±)
System: human skin
experimental.protocol: Skin irritation test of active ingredient (patch method, CTFA guidelines)
Assay type: in vivo
measurement.parameters: 0.1 wt %, 20 people, patch 24 hours; (±): slightly reddish than the periphery
Please reply with the number alone, leaving off any unit.

{"columns": ["compound", "endpoint.name", "measured.number"],
 "data": [
  ["C1CNCCNCCNCCN1", "Test result(number of subject) (±)", 0],
  ["NCCNCCNCCN [Trientine, Triethylenetetramine, reference compound]", "Test result(number of subject) (±)", 0],
  ["O=C(O)c1ccc(N2CCN(c3ccc(C(=O)O)cc3)CCN(c3ccc(C(=O)O)cc3)CCN(c3ccc(C(=O)O)cc3)CC2)cc1", "Test result(number of subject) (±)", 0],
  ["O=C(O)c1ccc(N(CCN(CCN(c2ccc(C(=O)O)o2)c2ccc(C(=O)O)o2)c2ccc(C(=O)O)o2)CCN(c2ccc(C(=O)O)o2)c2ccc(C(=O)O)o2)o1", "Test result(number of subject) (±)", 0],
  ["O=C(O)c1ccc(N2CCN(c3ccc(C(=O)O)o3)CCN(c3ccc(C(=O)O)o3)CCN(c3ccc(C(=O)O)o3)CC2)o1", "Test result(number of subject) (±)", 0]
]}

Entry O=C(O)CN(CCN(CCN(CC(=O)O)CC(=O)O)CC(=O)O)CCN(CC(=O)O)CC(=O)O has what Test result(number of subject) (±)? 0

Entry O=C(O)c1cncc(N2CCN(c3cncc(C(=O)O)c3)CCN(c3cncc(C(=O)O)c3)CCN(c3cncc(C(=O)O)c3)CC2)c1 has what Test result(number of subject) (±)? 0
